Cited source for all entries: the pKa sets of Baltruschat and Czodrowski (2020)

- study_conditions: basic group
metric_name: pKa
Give bare numbers.

Field: example entries. Status: answers known.
[[record]]
molecule = "C/N=C(/NC)N(C)C"
metric_name = "pKa"
measurement = 13.9

[[record]]
molecule = "Cc1ccc(-c2ncc(-c3ccccc3)o2)cc1"
metric_name = "pKa"
measurement = 1.04

[[record]]
molecule = "O=C(/C=N/O)NCCN1CCOCC1"
metric_name = "pKa"
measurement = 6.19


I'm hoping you can list pKa for every molecule here, please.
1. NC(=O)CC(=O)c1ccccn1
2. O=[N+]([O-])c1ccc(-c2ncc(-c3ccccc3)o2)cc1
3. COCCNc1ccc(C)cc1
4. Cc1ccc(S(=O)(=O)[N-]CCC(=N)N)cc1
5. CCc1c(C)nn(C)c1O
6. Nc1nsc2ccccc12
7. CNCC/C(N)=N/O

## Output
8.23
-0.61
4.64
10.8
3.5
2.45
9.6
